Please respond with reported Cellular binding assay [RFU] for every item in the list.
# assay target: T1, CD27 expressed on the cell surface (HT1080_CD27 cells) (human, UniProt P26842 20-260)
# T1 construct: whole, on cells; also called K562_CD27
# T1 sequence (looked up): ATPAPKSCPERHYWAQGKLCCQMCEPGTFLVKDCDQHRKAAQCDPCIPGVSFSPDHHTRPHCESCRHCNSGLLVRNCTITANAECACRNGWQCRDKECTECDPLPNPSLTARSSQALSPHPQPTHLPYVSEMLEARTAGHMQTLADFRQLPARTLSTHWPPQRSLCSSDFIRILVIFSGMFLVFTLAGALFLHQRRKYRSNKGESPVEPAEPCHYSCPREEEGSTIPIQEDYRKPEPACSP
# assay overview: cellular binding assay, HT1080_CD27 cells; further: test concentration or dose not given here
Quick note: give the figure in RFU, leave out the unit.

// query Using known records, supply Cellular binding assay [RFU] for P018.S.05.A.G04 (antibody, V domains shown, V regions on human Ig constant parts; also called AB27_93) VH: QEQLKESGGRLVKPDESLTLTCTASGFSLSRYDMSWVRQAPGKGLEWIGSIWSDGDTDYANWAKGRFTISKTSTMVDLKITSPTTEDTATYFCGRGYTAWNLWGPGTLVTVSS VL: ALVMTQTPSPVSATVGGTLTISCQSSESVVGNNALSWFQQKPGQPPKLLIYQASTLASGVSSRFSGSGSGTQFTLTISGVQSDDAATYYCQGTYYSSGWYFAFGGGTEVVVK
// result 375

// query Please give measured Cellular binding assay [RFU] of the following entry: P018.S.03.A.F04 (antibody, V domains shown, V regions on human Ig constant parts; also called AB27_55) VH: QSVEESGGRLVTPGTPLTLTCTVSGFSLSSYAMGWVRQAPGKGLQWIGILYRNDAASYANWAKGRFTISKTSTTVDLTMPSLTTEDTATYFCVRGYVNDGYYNLWGQGTLVTVSS VL: AYDMTQTPASVEVAVGGTVTIKCQASESIGYRLAWYQQKPGQPPKLLIFDASDLASGVPSRFKGSGSGKHFTLTISGVQSADAATYYCQQDYSYSITDNCFGGGTEVVVS
// result 299
